biological target: human MDR1 (Homo sapiens, UniProt P08183); assay: Gentest ABC transporter membrane ATPase assay; settings: ATPase, 0–300 μM, 30 min, 37°C
Sequence (P08183 whole entry): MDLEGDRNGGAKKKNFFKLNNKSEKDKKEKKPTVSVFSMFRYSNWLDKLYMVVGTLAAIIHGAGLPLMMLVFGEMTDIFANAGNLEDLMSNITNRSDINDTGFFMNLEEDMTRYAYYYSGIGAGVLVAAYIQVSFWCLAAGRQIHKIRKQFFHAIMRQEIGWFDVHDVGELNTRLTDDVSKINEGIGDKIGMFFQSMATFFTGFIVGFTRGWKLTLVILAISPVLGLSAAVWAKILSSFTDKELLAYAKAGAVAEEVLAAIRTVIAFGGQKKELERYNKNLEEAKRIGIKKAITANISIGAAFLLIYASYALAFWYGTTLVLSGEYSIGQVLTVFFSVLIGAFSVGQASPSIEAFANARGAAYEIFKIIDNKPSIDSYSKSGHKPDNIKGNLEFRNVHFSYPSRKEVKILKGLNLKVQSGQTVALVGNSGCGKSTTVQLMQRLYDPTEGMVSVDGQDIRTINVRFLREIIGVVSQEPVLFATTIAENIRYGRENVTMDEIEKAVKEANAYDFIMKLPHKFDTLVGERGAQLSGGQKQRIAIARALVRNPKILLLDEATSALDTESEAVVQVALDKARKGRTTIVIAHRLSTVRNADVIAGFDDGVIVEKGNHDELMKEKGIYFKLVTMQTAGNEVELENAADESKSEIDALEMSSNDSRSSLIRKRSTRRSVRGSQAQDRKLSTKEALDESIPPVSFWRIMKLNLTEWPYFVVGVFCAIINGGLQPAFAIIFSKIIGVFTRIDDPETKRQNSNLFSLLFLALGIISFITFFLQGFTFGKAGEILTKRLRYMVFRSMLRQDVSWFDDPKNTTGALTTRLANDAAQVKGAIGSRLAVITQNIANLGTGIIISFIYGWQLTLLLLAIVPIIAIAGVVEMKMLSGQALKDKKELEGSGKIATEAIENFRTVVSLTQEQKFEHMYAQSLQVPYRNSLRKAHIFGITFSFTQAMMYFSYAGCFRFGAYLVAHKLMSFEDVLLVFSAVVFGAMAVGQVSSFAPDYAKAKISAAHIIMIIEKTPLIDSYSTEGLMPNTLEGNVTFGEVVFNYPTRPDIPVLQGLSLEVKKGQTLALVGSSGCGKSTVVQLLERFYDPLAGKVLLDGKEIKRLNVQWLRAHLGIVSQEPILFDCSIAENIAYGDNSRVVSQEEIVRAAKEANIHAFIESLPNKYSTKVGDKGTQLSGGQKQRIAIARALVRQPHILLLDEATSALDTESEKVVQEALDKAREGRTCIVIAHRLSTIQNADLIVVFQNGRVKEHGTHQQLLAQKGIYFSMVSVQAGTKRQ
PROPERTY: Vmax (µM/min)

Here are 6 molecules together with their reported answers.
Please give measured Vmax of the following entry: CC(C)(C)NCC(O)c1ccc(O)c(CO)c1 (centres unmarked)
45.6

Please give measured Vmax of the following entry: COc1ccc(C[C@H](N)C(=O)N[C@H]2[C@@H](O)[C@H](n3cnc4c(N(C)C)ncnc43)O[C@@H]2CO)cc1
19.6

Please give measured Vmax of the following entry: CC(C)(C)NC(=O)[C@@H]1C[C@@H]2CCCC[C@@H]2CN1C[C@@H](O)[C@H](Cc1ccccc1)NC(=O)[C@H](CC(N)=O)NC(=O)c1ccc2ccccc2n1
41.3

Please give measured Vmax of the following entry: OCc1cc(C(O)CNCCCCCCOCCCCc2ccccc2)ccc1O (centres unmarked)
24.4

Please give measured Vmax of the following entry: C[C@H]1O[C@@H](O[C@H]2[C@@H](O)C[C@H](O[C@H]3[C@@H](O)C[C@H](O[C@H]4CC[C@@]5(C)[C@H](CC[C@@H]6[C@@H]5C[C@@H](O)[C@]5(C)[C@@H](C7=CC(=O)OC7)CC[C@]65O)C4)O[C@@H]3C)O[C@@H]2C)C[C@H](O)[C@@H]1O
19.7

Please give measured Vmax of the following entry: COc1cc2c(c(OC)c1OC)-c1ccc(OC)c(=O)cc1[C@@H](NC(C)=O)CC2
16.6

[1] CCc1cc2c(cc1CC)CC(NC[C@H](O)c1ccc(O)c3[nH]c(=O)ccc13)C2
[2] COC(=O)c1ccccc1-c1c2ccc(=N)cc-2oc2cc(N)ccc12.Cl
Hi there! Just curious which has the higher Vmax between 1 and 2 . Give the chosen item's label as your response.
1
(1: 81.1 µM/min, 2: 36.3 µM/min)
